pKi: −log10 of the molar value.
Below are pKi values recorded for D(3) dopamine receptor (Homo sapiens, UniProt P35462).
TEST READOUT: pKi

Consider the reported pKi for these compounds:
CCCN(CCCCNC(=O)c1ccc(-c2ccccc2)cc1)C1CCc2c(cccc2OS(C)(=O)=O)C1 (stereo not drawn); 8.90
CCCN(CCCCNC(=O)c1ccc(-c2ccccc2)cc1)C1CCc2ccccc2C1 (stereo not drawn); 8.80
CCCN(CCCCNC(=O)c1ccc(-c2ccccc2)cc1)C1CCc2c(O)cccc2C1 (stereo not drawn); 9.70
CCCN(CCCCNC(=O)c1ccc(-c2ccccc2)cc1)C1CCc2c(Br)cccc2C1 (stereo not drawn); 8.90

(a) CCCN(CCCCNC(=O)c1ccc(-c2ccccc2)cc1)C1CCc2c(Cl)cccc2C1 (stereo not drawn)
(b) CCCN(CCCCNC(=O)c1ccc(-c2ccccc2)cc1)C1CCc2c(C#N)cccc2C1 (stereo not drawn)
## Input Which shows the larger pKi value: a or b ? Identify your selection by its label.
## Output b
(b: 9.30, a: 8.80)

(a) CCCN(CCCCNC(=O)c1ccc(-c2ccccc2)cc1)C1CCc2c(cccc2C(N)=O)C1 (stereo not drawn)
(b) CCCN(CCCCNC(=O)c1ccc(-c2ccccc2)cc1)C1CCc2c(cccc2OC)C1 (stereo not drawn)
## Input Which shows the larger pKi value: a or b ? Identify your selection by its label.
## Output b

---

TARGET OF ASSAY: D(2) dopamine receptor (Homo sapiens, UniProt P14416)
Sequence (P14416 whole entry): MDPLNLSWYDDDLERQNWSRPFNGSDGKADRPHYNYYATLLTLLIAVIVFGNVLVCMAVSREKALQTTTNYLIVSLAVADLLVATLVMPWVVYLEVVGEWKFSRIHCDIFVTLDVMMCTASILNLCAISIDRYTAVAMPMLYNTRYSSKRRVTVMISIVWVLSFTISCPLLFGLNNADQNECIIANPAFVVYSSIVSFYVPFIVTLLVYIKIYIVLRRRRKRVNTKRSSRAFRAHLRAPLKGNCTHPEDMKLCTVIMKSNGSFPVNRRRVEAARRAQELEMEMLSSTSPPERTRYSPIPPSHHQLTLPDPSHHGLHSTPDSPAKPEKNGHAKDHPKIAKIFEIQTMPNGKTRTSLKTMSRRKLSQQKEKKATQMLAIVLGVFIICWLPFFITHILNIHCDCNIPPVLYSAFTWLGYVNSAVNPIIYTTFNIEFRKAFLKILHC
TEST PROTOCOL: Displacement of [125I]iodosulpiride from human Dopamine receptor D2 expressed in CHO cells
TEST READOUT: Ki (nM)

Consider the reported Ki for these compounds:
CN(CCCCNC(=O)c1ccc(-c2ccccc2)cc1)C1CCc2c(O)cccc2C1 (configuration not stated); 126
CCCN(CCCCNC(=O)c1ccc(-c2ccccc2)cc1)C1CCc2c(Cl)cccc2C1 (configuration not stated); 398
CCCN(CCCCNC(=O)c1ccc(-c2ccccc2)cc1)C1CCc2ccccc2C1 (configuration not stated); 316
CCCN(CCCCNC(=O)c1ccc(-c2ccccc2)cc1)C1CCc2c(cccc2OC)C1 (configuration not stated); 126
CCCN(CCCCNC(=O)c1ccc(-c2ccccc2)cc1)C1CCc2c(cccc2C(N)=O)C1 (configuration not stated); 631

(A) CCCN(CCCCNC(=O)c1ccc(-c2ccccc2)cc1)C1CCc2c(cccc2OS(C)(=O)=O)C1 (configuration not stated)
(B) CCCN(CCCCNC(=O)c1ccc(-c2ccccc2)cc1)C1CCc2c(cccc2OS(=O)(=O)C(F)(F)F)C1 (configuration not stated)
(C) CCCN(CCCCNC(=O)c1ccc(-c2ccccc2)cc1)C1CCc2c(C#N)cccc2C1 (configuration not stated)
(D) CCCN(CCCCNC(=O)c1ccc(-c2ccccc2)cc1)C1CCc2c(cccc2OCC2CC2)C1 (configuration not stated)
## Input Rank entries according to their Ki, from the largest number down. Provide the labels, sequenced as the question asks.
## Output D, B, A, C
(D: 794 nM, B: 398 nM, A: 251 nM, C: 100 nM)

---

TARGET OF ASSAY: D(2) dopamine receptor (Homo sapiens, UniProt P14416)
TEST PROTOCOL: Displacement of [125I]iodosulpiride from human Dopamine receptor D2 expressed in CHO cells
TEST READOUT: Ki (nM)

CCCN(CCCCNC(=O)c1ccc(-c2ccccc2)cc1)C1CCc2c(Br)cccc2C1 (stereo not drawn); 251
CCCN(CCCCNC(=O)c1ccc(-c2ccccc2)cc1)C1CCc2c(O)cccc2C1 (stereo not drawn); 25.1
COc1cccc2c1CCC(N(C)CCCCNC(=O)c1ccc(-c3ccccc3)cc1)C2 (stereo not drawn); 316

Provenance of the data: ChEMBL document CHEMBL1153677
